log10 IC50 for assorted molecules
EXPERIMENTAL TARGET: Human recombinant carboxy-terminal his-tagged LDHA (amino acids 2-332) (Homo sapiens)
EXPERIMENTAL PROTOCOL: LDHA enzyme inhibition assay (NADH fluorescence)
CONDITION DESCRIPTION: LDHA IC50 (μM), 1 nM LDHA, NADH and pyruvate, stereochemistry of tested sample given
MEASUREMENT TYPE: log10 IC50 (log10 of the value in µM)

molecule="O=C1CC(c2ccsc2)(c2cccc(Oc3cccc4[nH]ncc34)n2)NC(=O)C1Sc1ccccc1Cl (stereo not shown)" measured_result=-0.85
molecule="O=C1CC(c2ccsc2)(c2cccc(OCC(F)F)n2)NC(=O)C1Sc1ccccc1Cl (single isomer, unassigned) [Example 223]" measured_result=-1.24
molecule="O=C1CC(c2ccsc2)(c2ccc(N3CCOCC3)cc2O)NC(=O)C1Sc1ccccc1Cl (stereo not shown)" measured_result=-2.15
molecule="CN(c1ccc(F)cc1)c1cccc(C2(c3ccsc3)CC(=O)C(Sc3ccccc3Cl)C(=O)N2)n1 (single isomer, unassigned) [Example 266]" measured_result=-1.00
molecule="O=C1CC(c2ccsc2)(c2cccc(OCC3CCOCC3)n2)NC(=O)C1Sc1ccccc1Cl (single isomer, unassigned) [Example 187]" measured_result=-1.60
molecule="CN(c1cccc(CO)c1)c1cccc(C2(c3ccsc3)CC(=O)C(Sc3ccccc3Cl)C(=O)N2)n1 (stereo not shown) [Example 310]" measured_result=-0.44
molecule="O=C1CC(c2ccsc2)(c2cccc(CC3CCOCC3)n2)NC(=O)C1Sc1ccccc1Cl (stereo not shown)" measured_result=0.21

----------
IC50 for assorted molecules
EXPERIMENTAL TARGET: Human recombinant carboxy-terminal his-tagged LDHA (amino acids 2-332) (Homo sapiens, UniProt P00338)
EXPERIMENTAL PROTOCOL: LDHA enzyme inhibition assay (NADH fluorescence)
CONDITION DESCRIPTION: LDHA IC50 (μM), 1 nM LDHA, NADH and pyruvate, stereochemistry of tested sample given
MEASUREMENT TYPE: IC50 (µM)

molecule="COCCCOc1cccc(C2(c3ccsc3)CC(=O)C(Sc3ccccc3Cl)C(=O)N2)n1 (single isomer, unassigned) [Example 228]" unit_info=µM measured_result=0.419
molecule="CC(C)COc1cccc(C2(c3ccsc3)CC(=O)C(Sc3ccccc3Cl)C(=O)N2)n1 (centres unmarked) [Example 75]" unit_info=µM measured_result=0.07
molecule="O=C1CC(c2ccsc2)(c2cccc(OCCC3CCCC3)n2)NC(=O)C1Sc1ccccc1Cl (single isomer, unassigned) [Example 113]" unit_info=µM measured_result=0.014
molecule="O=C1CC(c2ccsc2)(c2cccc(OCc3ccc(F)cc3)n2)NC(=O)C1Sc1ccccc1Cl (centres unmarked) [Example 300]" unit_info=µM measured_result=0.144
molecule="O=C1CC(c2ccsc2)(c2cccc(NCCC3CC3)n2)NC(=O)C1Sc1ccccc1Cl (centres unmarked) [Example 138]" unit_info=µM measured_result=0.025
molecule="O=C1CC(c2ccsc2)(c2cccc(OCCC3CCCC3)n2)NC(=O)C1Sc1ccccc1Cl (single isomer, unassigned) [Example 125]" unit_info=µM measured_result=0.003
molecule="CC1(COc2cccc(C3(c4ccsc4)CC(=O)C(Sc4ccccc4Cl)C(=O)N3)n2)CC1 (single isomer, unassigned) [Example 158]" unit_info=µM measured_result=0.018
molecule="O=C1CC(c2ccsc2)(c2cccc(Oc3ccccc3)n2)NC(=O)C1Sc1ccccc1Cl (centres unmarked) [Example 336]" unit_info=µM measured_result=0.368
molecule="O=C1C[C@](c2ccsc2)(c2cccc(OCCC3CC3)n2)NC(=O)C1Sc1ccccc1Cl (some centres unmarked) [Example 92]" unit_info=µM measured_result=0.007
molecule="O=C1CC(c2ccsc2)(c2cccc(OC3CCCCC3)n2)NC(=O)C1Sc1ccccc1Cl (single isomer, unassigned) [Example 205]" unit_info=µM measured_result=0.058
molecule="CC(Oc1cccc(C2(c3ccsc3)CC(=O)C(Sc3ccccc3Cl)C(=O)N2)n1)C1CC1 (single isomer, unassigned) [Example 214]" unit_info=µM measured_result=0.017
molecule="CC1CC1COc1cccc(C2(c3ccsc3)CC(=O)C(Sc3ccccc3Cl)C(=O)N2)n1 (centres unmarked) [Example 183]" unit_info=µM measured_result=0.005
molecule="COc1cc(-c2cccc(C3(c4ccsc4)CC(=O)C(Sc4ccccc4Cl)C(=O)N3)n2)ccc1F (centres unmarked) [Example 255]" unit_info=µM measured_result=0.102
molecule="O=C1CC(c2ccsc2)(c2cccc(Oc3ccc(F)cc3F)n2)NC(=O)C1Sc1ccccc1Cl (centres unmarked) [Example 50]" unit_info=µM measured_result=0.022
molecule="O=C1CC(c2ccsc2)(c2ccc(N3CCOCC3)c(Nc3ccc(F)cc3)n2)NC(=O)C1Sc1ccccc1Cl (centres unmarked) [Example 26]" unit_info=µM measured_result=0.038
molecule="Cc1cc(Nc2cccc(C3(c4ccsc4)CC(=O)C(Sc4ccccc4Cl)C(=O)N3)n2)nn1C (centres unmarked) [Example 272]" unit_info=µM measured_result=0.459
molecule="O=C1CC(c2ccsc2)(c2cccc(OC3CCCc4ccccc43)n2)NC(=O)C1Sc1ccccc1Cl (centres unmarked) [Example 321]" unit_info=µM measured_result=0.246
molecule="CC(C)(C)COc1cccc(C2(c3ccsc3)CC(=O)C(Sc3ccccc3Cl)C(=O)N2)n1 (centres unmarked) [Example 226]" unit_info=µM measured_result=0.02
molecule="CN1C(=O)C(Sc2ccccc2Cl)C(=O)CC1(c1ccsc1)c1cccc(NC2CCOCC2)c1 (centres unmarked) [Example 34]" unit_info=µM measured_result=0.033
molecule="O=C1CC(c2ccsc2)(c2cccc(Oc3cc(F)cc(CO)c3)n2)NC(=O)C1Sc1ccccc1Cl (single isomer, unassigned) [Example 216]" unit_info=µM measured_result=0.002
molecule="O=C1CC(c2ccsc2)(c2cccc(Oc3ccc(F)c(C(F)F)c3)n2)NC(=O)C1Sc1ccccc1Cl (centres unmarked) [Example 152]" unit_info=µM measured_result=0.006
molecule="O=C1CC(c2ccsc2)(c2cccc(Br)n2)NC(=O)C1Sc1ccccc1Cl (centres unmarked) [Example 1]" unit_info=µM measured_result=0.006
molecule="Cc1cnc(Nc2cccc(C3(c4ccsc4)CC(=O)C(Sc4ccccc4Cl)C(=O)N3)n2)[nH]1 (centres unmarked) [Example 276]" unit_info=µM measured_result=0.175
molecule="CN(c1cccc(CO)c1)c1cccc(C2(c3ccsc3)CC(=O)C(Sc3ccccc3Cl)C(=O)N2)n1 (centres unmarked) [Example 309]" unit_info=µM measured_result=0.408
molecule="Cc1cnc(N)n1-c1cccc(C2(c3ccsc3)CC(=O)C(Sc3ccccc3Cl)C(=O)N2)n1 (centres unmarked) [Example 278]" unit_info=µM measured_result=0.339
molecule="COc1ccccc1Oc1cccc(C2(c3ccsc3)CC(=O)C(Sc3ccccc3Cl)C(=O)N2)n1 (single isomer, unassigned) [Example 337]" unit_info=µM measured_result=0.021
molecule="O=C1CC(c2ccsc2)(c2cccc(Oc3cncc(F)c3)n2)NC(=O)C1Sc1ccccc1Cl (single isomer, unassigned) [Example 65]" unit_info=µM measured_result=0.056
molecule="CC(C)CCOc1cccc(C2(c3ccsc3)CC(=O)C(Sc3ccccc3Cl)C(=O)N2)n1 (single isomer, unassigned) [Example 124]" unit_info=µM measured_result=0.003
molecule="CCC1(COc2cccc([C@@]3(c4ccsc4)CC(=O)C(Sc4ccccc4Cl)C(=O)N3)n2)COC1 (some centres unmarked) [Example 248]" unit_info=µM measured_result=0.005
